Value source: ChEMBL document CHEMBL1140710

Please go through the items and note down their Activity.
# MEASURED_ON: Melanocortin receptor 4 (Homo sapiens, UniProt P32245)
# Sequence (P32245 whole entry): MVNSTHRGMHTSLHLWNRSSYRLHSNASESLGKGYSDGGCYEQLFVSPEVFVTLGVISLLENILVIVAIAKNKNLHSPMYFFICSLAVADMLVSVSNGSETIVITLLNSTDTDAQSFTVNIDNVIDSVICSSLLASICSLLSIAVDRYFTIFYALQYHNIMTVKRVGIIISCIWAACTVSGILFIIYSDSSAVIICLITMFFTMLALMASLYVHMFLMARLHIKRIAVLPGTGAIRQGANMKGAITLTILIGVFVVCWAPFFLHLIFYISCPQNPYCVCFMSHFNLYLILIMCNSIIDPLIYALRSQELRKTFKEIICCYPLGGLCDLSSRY
# PROCEDURE_SUMMARY: Agonist activity at human MC4 receptor expressed in HEK293 cells assessed as intracellular cAMP accumulation at 10 uM
# Assay type: functional, cell-based
# unit: % | format: bare number

stdin: # get_value(readout='Activity', item= N=C(N)NCCC[C@@H]1NC(=O)[C@@H](Cc2ccccc2)NC(=O)c2cccc(n2)C(=O)NCCCC[C@@H](C(N)=O)NC(=O)[C@H](Cc2c[nH]c3ccccc23)NC1=O )
stdout: 0

stdin: Need Activity, item N=C(N)NCCC[C@@H]1NC(=O)[C@@H](Cc2ccc3ccccc3c2)NC(=O)c2nccnc2C(=O)NCCCC[C@@H](C(N)=O)NC(=O)[C@H](Cc2c[nH]c3ccccc23)NC1=O
stdout: 0

stdin: # get_value(readout='Activity', item= N=C(N)NCCC[C@@H]1NC(=O)[C@@H](Cc2ccc3ccccc3c2)NC(=O)c2cccc(n2)C(=O)NCCCC[C@@H](C(N)=O)NC(=O)[C@H](Cc2c[nH]c3ccccc23)NC1=O )
stdout: 0

###

Kindly supply the reported Activity values for the records listed here.
# MEASURED_ON: Melanocortin receptor 3 (Homo sapiens, UniProt P41968)
# Sequence (P41968 whole entry): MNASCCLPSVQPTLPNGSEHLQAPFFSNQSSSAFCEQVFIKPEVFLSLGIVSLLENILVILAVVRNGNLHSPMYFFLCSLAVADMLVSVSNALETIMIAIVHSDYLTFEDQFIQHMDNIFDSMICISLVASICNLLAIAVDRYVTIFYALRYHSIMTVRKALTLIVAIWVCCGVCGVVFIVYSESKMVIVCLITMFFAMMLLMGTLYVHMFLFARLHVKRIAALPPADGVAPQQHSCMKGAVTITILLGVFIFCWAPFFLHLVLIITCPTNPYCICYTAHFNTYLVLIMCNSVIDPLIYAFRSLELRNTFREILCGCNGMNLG
# PROCEDURE_SUMMARY: Agonist activity at human MC3 receptor expressed in HEK293 cells assessed as intracellular cAMP accumulation at 10 uM
# Assay type: functional, cell-based
Please give a number only; it is taken to be in %.

stdin: Activity for N=C(N)NCCC[C@@H]1NC(=O)[C@@H](Cc2ccc3ccccc3c2)NC(=O)[C@@H]2CCCN2C(=O)/C=C\C(=O)NCCCC[C@@H](C(N)=O)NC(=O)[C@H](Cc2c[nH]c3ccccc23)NC1=O ?
stdout: 0

stdin: Which Activity value is on record for N=C(N)NCCC[C@@H]1NC(=O)[C@@H](Cc2ccccc2)NC(=O)c2cccc(n2)C(=O)NCCCC[C@@H](C(N)=O)NC(=O)[C@H](Cc2c[nH]c3ccccc23)NC1=O ?
stdout: 0

stdin: Quick one: Activity for N=C(N)NCCC[C@@H]1NC(=O)[C@@H](Cc2ccc3ccccc3c2)NC(=O)c2nccnc2C(=O)NCCCC[C@@H](C(N)=O)NC(=O)[C@H](Cc2c[nH]c3ccccc23)NC1=O ?
stdout: 0

stdin: Report Activity for N=C(N)NCCC[C@@H]1NC(=O)[C@@H](Cc2ccc3ccccc3c2)NC(=O)[C@@H]2CCCN2C(=O)c2ccccc2C(=O)NCCCC[C@@H](C(N)=O)NC(=O)[C@H](Cc2c[nH]c3ccccc23)NC1=O please.
stdout: 0

stdin: Which Activity reading was recorded for the compound N=C(N)NCCC[C@@H]1NC(=O)[C@@H](Cc2ccc3ccccc3c2)NC(=O)c2cccc(n2)C(=O)NCCCC[C@@H](C(N)=O)NC(=O)[C@H](Cc2c[nH]c3ccccc23)NC1=O ?
stdout: 0

###

# MEASURED_ON: Melanocortin receptor 4 (Homo sapiens)
# PROCEDURE_SUMMARY: biochemical
PROPERTY_MEASURED: pIC50
Units for pIC50: none; it is -log10 of a concentration expressed in mol/L.

stdin: Fill in: pIC50 of CCCC[C@@H]1NC(=O)CCC(=O)NCCCC[C@@H](C(N)=O)NC(=O)[C@H](Cc2c[nH]c3ccccc23)NC(=O)[C@H](CCCN=C(N)N)NC(=O)[C@@H](Cc2ccc3ccccc3c2)NC1=O is ___
stdout: 6.52

stdin: // query pIC50 value for entry N=C(N)NCCC[C@@H]1NC(=O)[C@@H](Cc2ccc3ccccc3c2)NC(=O)[C@@H]2CCCN2C(=O)/C=C\C(=O)NCCCC[C@@H](C(N)=O)NC(=O)[C@H](Cc2c[nH]c3ccccc23)NC1=O
stdout: 6.28

stdin: pIC50 lookup needed for N=C(N)NCCC[C@@H]1NC(=O)[C@@H](Cc2ccccc2)NC(=O)[C@@H]2CCCN2C(=O)/C=C\C(=O)NCCCC[C@@H](C(N)=O)NC(=O)[C@H](Cc2c[nH]c3ccccc23)NC1=O , thanks.
stdout: 6.80

stdin: Dear colleague, I am looking for the recorded pIC50 of the following compound: N=C(N)NCCC[C@@H]1NC(=O)[C@@H](Cc2ccccc2)NC(=O)[C@@H]2CCCN2C(=O)c2ccccc2C(=O)NCCCC[C@@H](C(N)=O)NC(=O)[C@H](Cc2c[nH]c3ccccc23)NC1=O
stdout: 6.11

stdin: What value of pIC50 has been recorded for this entry: CCCC[C@@H]1NC(=O)CCC(=O)NCCCC[C@@H](C(N)=O)NC(=O)[C@H](Cc2c[nH]c3ccccc23)NC(=O)[C@H](CCCN=C(N)N)NC(=O)[C@@H](Cc2ccccc2)NC1=O
stdout: 6.03
